Experimental target: CDK4/cyclin D3 (Homo sapiens, UniProt P11802)
Construct: made in house; host or cells: insect cells (baculovirus co-infection)
Sequence (P11802 whole entry): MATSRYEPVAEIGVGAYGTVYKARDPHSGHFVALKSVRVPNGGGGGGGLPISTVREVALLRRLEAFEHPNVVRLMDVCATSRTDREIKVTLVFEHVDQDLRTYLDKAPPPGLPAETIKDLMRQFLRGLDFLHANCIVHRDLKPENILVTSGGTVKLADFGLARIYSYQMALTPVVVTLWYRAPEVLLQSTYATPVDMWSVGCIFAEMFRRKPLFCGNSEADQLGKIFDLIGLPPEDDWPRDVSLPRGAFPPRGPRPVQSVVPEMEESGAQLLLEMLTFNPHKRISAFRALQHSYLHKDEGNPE
Sequence (P30281 1-264 partner limits assumed): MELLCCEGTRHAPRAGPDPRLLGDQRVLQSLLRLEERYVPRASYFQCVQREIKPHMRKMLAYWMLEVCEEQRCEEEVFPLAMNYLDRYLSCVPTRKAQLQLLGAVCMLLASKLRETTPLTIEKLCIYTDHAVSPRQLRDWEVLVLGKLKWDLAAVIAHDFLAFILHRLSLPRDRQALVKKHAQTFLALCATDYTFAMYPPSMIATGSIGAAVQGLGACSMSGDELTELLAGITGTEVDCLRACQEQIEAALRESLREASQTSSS
Assay comment: Inhibition of CDK4/Cyclin D retinoblastoma kinase activity;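 further: relative to DMSO control wells without compound minus no-enzyme background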
Assay type: biochemical
Conditions: test compound at 1 μM (head line shifted: 'mM' printed beside 'Structure'); read-out: % Inhib CDK4/D @ 1 μM
Measured property: inhibition at 1 µM

Some compounds with recorded inhibition at 1 µM:
CCN(CC)C(=O)C[S+]([O-])c1ccc(Nc2nc(N)c(C(=O)c3c(Cl)cccc3Cl)s2)cc1 (centres unmarked) [DD(81)] : 57.4%
Nc1nc(Nc2ccc(SCC3CCCO3)cc2)sc1C(=O)c1c(Cl)cccc1Cl (centres unmarked) [DD(18)] : 70.6%
COC(=O)/C=C/CSc1ccc(Nc2nc(N)c(C(=O)c3c(Cl)cccc3Cl)s2)cc1 [DD(4)] : 49.1%
COc1cccc(CSc2ccc(Nc3nc(N)c(C(=O)c4c(Cl)cccc4Cl)s3)cc2)c1 [DD(17)] : 28.3%
Nc1nc(Nc2ccc(S(=O)(=O)Cc3ccncc3)cc2)sc1C(=O)c1c(Cl)cccc1Cl [DD(235)] : 6.9%

Prompt: Value lookup for inhibition at 1 µM; key = Nc1nc(Nc2ccc([S+]([O-])CC3CCCO3)cc2)sc1C(=O)c1c(Cl)cccc1Cl (centres unmarked) [DD(98)]
Response: 45.4%

Prompt: Again, but for Nc1nc(Nc2cccc([S+]([O-])CCN3CCOCC3)c2)sc1C(=O)c1c(Cl)cccc1Cl (centres unmarked) [DD(159)]
Response: 44%
